# tested_target: VAV1 (Homo sapiens, UniProt P15498+Q96SW2)
# Construct: A heterozygous VAV1 C-terminal HiBiT knock-in pool was generated at Monte Rosa Therapeutics from a clonal Jurkat cell; endogenous in cells; host or cells: Jurkat clone stably expressing LgBiT, homozygous GSPT1-G575N; heterozygous VAV1-HiBiT knock-in pool
# assay_info: VAV1 degradation activity, VAV1-HiBiT knock-in Jurkat luminescence assay (Example A, Table 1)
# Type: cell-based
# setup_conditions: VAV1-HiBiT knock-in Jurkat cells, luminescence read at 6 and 24 hours; read-out: VAV1 DC50
Exercise: for every item that follows, state its recorded log10 DC50.
Log10 applied to DC50; unit prior to transform: nM.

Before answering, review these 6 worked examples.
>>> measured_number("Nc1ccc(-c2cccc(C3CCC(=O)NC3=O)c2Cl)cc1Cl (centres unmarked)")
1.26
>>> measured_number("O=C1CCC(c2cccc(-c3ccc(CN4CCCCC4=O)cc3)c2Cl)C(=O)N1 (centres unmarked)")
1.27
>>> measured_number("CC1CCCN(Cc2ccc(-c3cccc(C4CCC(=O)NC4=O)c3Cl)cc2)C1=O (centres unmarked)")
1.10
>>> measured_number("Cc1nccn1Cc1ccc(-c2cccc(C3CCC(=O)NC3=O)c2Cl)cc1 (centres unmarked)")
1.69
>>> measured_number("O=C1CCC(c2cccc(-c3ccc(-n4c(C(F)(F)F)cccc4=O)cc3)c2Cl)C(=O)N1 (centres unmarked)")
0.36
>>> measured_number("O=C1CCC(c2cccc(-c3ccc(N4C(=O)CCC45COC5)cc3)c2Cl)C(=O)N1 (centres unmarked)")
1.20

Consider the record given below.
QUERY: Notebook: pull reported log10 DC50 for VAV1 (Homo sapiens, UniProt P15498+Q96SW2), entry `O=C1CC[C@@H](c2cccc(-c3ccc(Cn4ccccc4=O)cc3)c2Cl)C(=O)N1`
RESULT: 1.16

* * *

Exercise: for every item that follows, state its recorded DC50.
# tested_target: VAV1 (Homo sapiens, UniProt P15498+Q96SW2)
# Construct: A heterozygous VAV1 C-terminal HiBiT knock-in pool was generated at Monte Rosa Therapeutics from a clonal Jurkat cell; endogenous in cells; host or cells: Jurkat clone stably expressing LgBiT, homozygous GSPT1-G575N; heterozygous VAV1-HiBiT knock-in pool
# assay_info: VAV1 degradation activity, VAV1-HiBiT knock-in Jurkat luminescence assay (Example A, Table 1)
# Type: cell-based
# setup_conditions: VAV1-HiBiT knock-in Jurkat cells, luminescence read at 6 and 24 hours; read-out: VAV1 DC50 (nM), class

Before answering, review these 5 worked examples.
>>> result("CN1CCCN(c2ccc(-c3cccc(C4CCC(=O)NC4=O)c3Cl)cn2)C1=O (stereo not drawn)")
"100 to 1000 nM"
>>> result("O=C1CCC(c2cccc(-c3ccc(Cc4ncccn4)cc3)c2Cl)C(=O)N1 (stereo not drawn)")
"≤ 100 nM"
>>> result("O=C1CCC(c2cccc(-c3ccc(CN4C(=O)CCC45CCC5)cc3)c2Cl)C(=O)N1 (stereo not drawn)")
"≤ 100 nM"
>>> result("O=C1CCC(c2cccc(-c3ccc(N4CCC4=O)cc3)c2Cl)C(=O)N1 (stereo not drawn)")
"> 1000 nM"
>>> result("O=C1CCC(c2cccc(-c3ccc(N4CCn5cncc5C4=O)cc3)c2Cl)C(=O)N1 (stereo not drawn)")
"≤ 100 nM"

Count: 7. Required value per item: DC50.
1. CC1CCCN(c2ccc(-c3cccc(C4CCC(=O)NC4=O)c3Cl)cc2)C1=O (stereo not drawn)
2. O=C1CCC(c2cccc(-c3ccc(Cn4ccccc4=O)cc3)c2Cl)C(=O)N1 (stereo not drawn)
3. O=C1CCC(c2cccc(-c3ccc(C4(N5CCCCC5=O)CC4)cc3)c2Cl)C(=O)N1 (stereo not drawn)
4. O=C1CCC(c2cccc(-c3ccc(N4C(=O)OCCC45CC5)cc3)c2Cl)C(=O)N1 (stereo not drawn)
5. O=C1CN(CCOc2ccc(-c3cccc(C4CCC(=O)NC4=O)c3Cl)cc2)CCN1 (stereo not drawn)
6. O=C1CCC(c2cccc(-c3ccc(N4CCC5CC5C4=O)cc3)c2Cl)C(=O)N1 (stereo not drawn)
7. O=C1CCC(c2cccc(-c3ccc(-n4c(C(F)(F)F)cccc4=O)cc3)c2Cl)C(=O)N1 (stereo not drawn)

RESULT:
["≤ 100 nM", "≤ 100 nM", "> 1000 nM", "≤ 100 nM", "≤ 100 nM", "≤ 100 nM", "≤ 100 nM"]
